These data points were gathered from patent US20250325677A1.

Tested on: eotaxin-3 release
Test: Human whole blood eotaxin-3 assay (IL-4 stimulated)
Assay type: cell-based
Conditions: human whole blood, IL-4 0.4 nM, 48 hours; geometric mean; given for compounds with >80% Emax; read-out: Eotaxin-3 EC50
quantity: pEC50
Note on pEC50: it is the negative log10 of concentration, concentration in mol/L.

Examples with their reported pEC50 follow.
C[C@H]1CN(Cc2cc3c(cc2F)n(C2CCC(=O)NC2=O)c(=O)n3C2CC2)CCN1CC1CCN(C(=O)c2ccc(C3CCN([C@@H](C)c4cc5c(-c6ccc(N)nc6)ccnc5n4C)CC3)cc2)CC1 (some centres unmarked) [Example 3e58] :: 8.72
COCc1nc2cc(-c3ccnc4c3cc([C@H](C)N3CCC(c5ccc(C(=O)N6CCC(CN7CCN(Cc8ccc9c(c8)n(C8CC8)c(=O)n9C8CCC(=O)NC8=O)C[C@@H]7C)CC6)cc5)CC3)n4C)ccc2[nH]1 (some centres unmarked) [Example 3e27] :: 8.57

Report pEC50 for C[C@H]1CN(Cc2ccc3c(c2)C(C)(C)C(=O)N3[C@@H]2CCC(=O)NC2=O)CCN1CC1CCN(C(=O)c2ccc(C3CCN([C@@H](C)c4cc5c(-c6ccc(N)nc6)ccnc5n4C)CC3)cc2)CC1 [Example 3h32] please. 7.65

Report pEC50 for CNc1ccc(-c2ccnc3c2cc([C@H](C)N2CCC(c4ccc(C(=O)N5CCC(CN6CCN(Cc7ccc8c(c7)n(C7CC7)c(=O)n8C7CCC(=O)NC7=O)C[C@@H]6C)CC5)cc4)CC2)n3C)cn1 (some centres unmarked) [Example 3h25] please. 8.47

Report pEC50 for C[C@H]1CN(Cc2ccc3c(c2)C2(CC2)C(=O)N3C2CCC(=O)NC2=O)CCN1CC1CCN(C(=O)c2cc(F)c(C3CCN(Cc4cc5c(-c6ccc(N)nc6)ccnc5n4C)CC3)c(F)c2)CC1 (some centres unmarked) [Example 3h24] please. 8.41

* * *

Molecular target: UniProtKB P42226
Sequence (P42226 whole entry): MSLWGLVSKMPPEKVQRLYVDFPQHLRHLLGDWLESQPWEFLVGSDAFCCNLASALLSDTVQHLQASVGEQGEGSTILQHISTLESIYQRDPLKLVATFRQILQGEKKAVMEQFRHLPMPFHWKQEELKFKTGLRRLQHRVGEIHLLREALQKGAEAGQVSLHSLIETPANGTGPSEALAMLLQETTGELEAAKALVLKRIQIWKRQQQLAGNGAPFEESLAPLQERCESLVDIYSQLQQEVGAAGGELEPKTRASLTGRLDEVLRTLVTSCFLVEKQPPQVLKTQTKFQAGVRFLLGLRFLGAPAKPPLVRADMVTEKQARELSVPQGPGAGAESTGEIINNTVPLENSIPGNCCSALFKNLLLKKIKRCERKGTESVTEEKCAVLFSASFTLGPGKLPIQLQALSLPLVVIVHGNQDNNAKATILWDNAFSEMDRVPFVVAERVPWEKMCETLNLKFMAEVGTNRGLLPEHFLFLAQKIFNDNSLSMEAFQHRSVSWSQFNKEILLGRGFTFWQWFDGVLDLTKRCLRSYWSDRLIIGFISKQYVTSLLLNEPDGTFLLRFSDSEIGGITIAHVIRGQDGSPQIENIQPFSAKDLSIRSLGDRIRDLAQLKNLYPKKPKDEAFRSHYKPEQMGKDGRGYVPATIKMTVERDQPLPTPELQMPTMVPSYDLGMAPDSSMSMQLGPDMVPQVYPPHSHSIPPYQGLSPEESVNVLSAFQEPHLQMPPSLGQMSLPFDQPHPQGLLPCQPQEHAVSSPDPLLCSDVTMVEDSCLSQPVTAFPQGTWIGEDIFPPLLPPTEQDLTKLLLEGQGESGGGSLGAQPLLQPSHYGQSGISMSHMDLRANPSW
Test: STAT6 degrader assay (HiBiT, HeLa LgBiT clone 4.14)
Format: cell-based
Details: HeLa LgBiT clone 4.14, 4-24 h; geometric mean; given for compounds with >80% Emax; read-out: STAT6 degradation DC50
The label 1 (yes) is reserved for DC50 strictly under 1 nM; 0 (no) covers values equal to or above it.

The examples below pair each entry with its known result.
COCc1nc2cc(-c3ccnc4c3cc(CN3CCC(c5ccc(C(=O)N6CCC(CN7CCN(Cc8ccc9c(c8)oc(=O)n9C8CCC(=O)NC8=O)CC7)CC6)cc5)CC3)n4C)ccc2[nH]1 (stereo not drawn) :: 0 (no)
COCCn1c(=O)n(C2CCC(=O)NC2=O)c2ccc(CN3CCN(CC4CCN(C(=O)c5ccc(C6CCN(Cc7cc8c(-c9ccc(N)nc9)ccnc8n7C)CC6)cc5)CC4)CC3)cc21 (stereo not drawn) :: 0 (no)
COCc1nc2cc(-c3ccnc4c3cc([C@H](C)N3CCC(c5ccc(C(=O)N6CCC(CN7CCN(Cc8ccc9c(c8)n(C)c(=O)n9C8CCC(=O)NC8=O)C[C@@H]7C)CC6)cc5)CC3)n4C)ccc2[nH]1 (stereo partly drawn) :: 1 (yes)
C[C@@H](c1cc2c(-c3ccc(N)nc3)ccnc2n1C)N1CCC(c2ccc(C(=O)N3CCC(CN4CCN(Cc5ccc6c(c5)oc(=O)n6C5CCC(=O)NC5=O)CC4)CC3)cc2)CC1 (stereo partly drawn) :: 0 (no)
Cn1c(CN2CCC(c3ccc(C(=O)N4CCC(OCC#Cc5cccc6c5n(C)c(=O)n6C5CCC(=O)NC5=O)CC4)cc3)CC2)cc2c(-c3ccc4[nH]ncc4c3)ccnc21 (stereo not drawn) :: 0 (no)

Please check: DC50 for Cc1cc(C(=O)N2CCC(CN3CCN(Cc4ccc5c(c4)n(C4CC4)c(=O)n5[C@@H]4CCC(=O)NC4=O)C[C@@H]3C)CC2)cc(F)c1C1=CCN([C@@H](C)c2cc3c(-c4ccc(N)nc4)ccnc3n2C)CC1 (single isomer, unassigned) , strictly under 1 nM or not? 1 (yes)

Please check: DC50 for C[C@H]1CN(Cc2ccc3c(c2)n(C)c(=O)n3[C@H]2CCC(=O)NC2=O)CCN1CC1CCN(C(=O)c2ccc(C3CCN([C@@H](C)c4cc5c(-c6ccc(N)nc6)ccnc5n4C)CC3)cc2)CC1 (single isomer, unassigned) , strictly under 1 nM or not? 1 (yes)

Please check: DC50 for C[C@@H](c1cc2c(-c3ccc(N)nc3)ccnc2n1C)N1CCC(c2ccc(C(=O)N3CCC(CN4[C@@H](C)CN(Cc5ccc6c(c5)n(C)c(=O)n6C5CCC(=O)NC5=O)C[C@@H]4C)CC3)cc2)CC1 (stereo partly drawn) , strictly under 1 nM or not? 1 (yes)

Please check: DC50 for COCc1nc2cc(-c3ccnc4c3cc([C@H](C)N3CCC(c5ccc(C(=O)N6CCC(CN7CCN(Cc8ccc9c(c8)n(C8CC8)c(=O)n9C8CCC(=O)NC8=O)C[C@@H]7C)CC6)cc5)CC3)n4C)ccc2[nH]1 (stereo partly drawn) , strictly under 1 nM or not? 1 (yes)
